biological target: UniProt P53667; test: radiometric filter-binding kinase assay, Kinase HotSpot; conditions: compound 0.5 µM; ATP 10 µM
Sequence (P53667 whole entry, looked up): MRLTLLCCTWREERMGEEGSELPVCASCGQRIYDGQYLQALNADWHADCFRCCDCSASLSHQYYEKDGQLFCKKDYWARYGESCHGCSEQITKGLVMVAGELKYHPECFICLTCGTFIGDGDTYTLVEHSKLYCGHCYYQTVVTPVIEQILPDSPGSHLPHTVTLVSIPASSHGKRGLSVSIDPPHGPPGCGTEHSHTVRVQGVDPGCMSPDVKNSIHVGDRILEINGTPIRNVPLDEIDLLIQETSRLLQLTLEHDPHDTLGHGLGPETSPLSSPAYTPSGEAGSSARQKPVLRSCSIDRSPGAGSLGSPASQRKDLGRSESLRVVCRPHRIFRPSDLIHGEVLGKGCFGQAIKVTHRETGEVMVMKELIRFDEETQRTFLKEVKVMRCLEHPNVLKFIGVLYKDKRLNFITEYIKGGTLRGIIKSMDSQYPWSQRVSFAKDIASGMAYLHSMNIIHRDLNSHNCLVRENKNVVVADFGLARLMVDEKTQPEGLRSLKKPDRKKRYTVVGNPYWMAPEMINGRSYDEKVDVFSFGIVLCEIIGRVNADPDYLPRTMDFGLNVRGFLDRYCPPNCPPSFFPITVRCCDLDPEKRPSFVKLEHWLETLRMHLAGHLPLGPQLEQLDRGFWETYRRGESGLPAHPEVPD
Listing of entries alongside the reported residual activity.
Numbers only; they are read as %.

>  <compound string>
CO[C@@H]1[C@H](N(C)C(=O)c2ccccc2)C[C@H]2O[C@]1(C)n1c3ccccc3c3c4c(c5c6ccccc6n2c5c31)C(=O)NC4

>  <display unit>
%

>  <residual activity>
19.6

$$$$

Record request: residual activity value, item COc1ccc(C(=O)Nc2sc3c(c2C(N)=O)CCCC3)cc1OC
93.2

Would you kindly share the measured residual activity for CCCCc1c(-c2ccc(OC)cc2)[nH]c2nccnc12 ?
65.3

----------
test system: MAP2K6 (human), P52564 [S207E/T211E]; assay: radiometric filter-binding kinase assay, Kinase HotSpot; details: compound 0.5 µM; ATP 10 µM
Sequence (P52564 whole entry S207E/T211E, looked up): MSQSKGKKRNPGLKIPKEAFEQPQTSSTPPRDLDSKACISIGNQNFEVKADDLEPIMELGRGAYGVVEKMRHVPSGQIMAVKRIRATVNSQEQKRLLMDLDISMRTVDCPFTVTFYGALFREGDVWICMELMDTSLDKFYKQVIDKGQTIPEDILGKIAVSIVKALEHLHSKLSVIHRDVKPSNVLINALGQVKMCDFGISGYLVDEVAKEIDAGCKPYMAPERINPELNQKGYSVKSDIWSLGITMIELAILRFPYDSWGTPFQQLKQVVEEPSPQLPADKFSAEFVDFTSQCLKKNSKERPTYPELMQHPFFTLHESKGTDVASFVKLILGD
property: residual activity (%)
Supply the numeric figure in %, leaving out any unit text.

Consider the compound shown here: Cn1cnc2cc3c(Nc4cccc(Br)c4)ncnc3cc21 What is its recorded residual activity?
104

----------
biological target: RPS6KA1 KD1 KD2 (human) (UniProt Q15418); test: radiometric filter-binding kinase assay, Kinase HotSpot; details: compound 0.5 µM; ATP 10 µM
Sequence (Q15418 whole entry, looked up): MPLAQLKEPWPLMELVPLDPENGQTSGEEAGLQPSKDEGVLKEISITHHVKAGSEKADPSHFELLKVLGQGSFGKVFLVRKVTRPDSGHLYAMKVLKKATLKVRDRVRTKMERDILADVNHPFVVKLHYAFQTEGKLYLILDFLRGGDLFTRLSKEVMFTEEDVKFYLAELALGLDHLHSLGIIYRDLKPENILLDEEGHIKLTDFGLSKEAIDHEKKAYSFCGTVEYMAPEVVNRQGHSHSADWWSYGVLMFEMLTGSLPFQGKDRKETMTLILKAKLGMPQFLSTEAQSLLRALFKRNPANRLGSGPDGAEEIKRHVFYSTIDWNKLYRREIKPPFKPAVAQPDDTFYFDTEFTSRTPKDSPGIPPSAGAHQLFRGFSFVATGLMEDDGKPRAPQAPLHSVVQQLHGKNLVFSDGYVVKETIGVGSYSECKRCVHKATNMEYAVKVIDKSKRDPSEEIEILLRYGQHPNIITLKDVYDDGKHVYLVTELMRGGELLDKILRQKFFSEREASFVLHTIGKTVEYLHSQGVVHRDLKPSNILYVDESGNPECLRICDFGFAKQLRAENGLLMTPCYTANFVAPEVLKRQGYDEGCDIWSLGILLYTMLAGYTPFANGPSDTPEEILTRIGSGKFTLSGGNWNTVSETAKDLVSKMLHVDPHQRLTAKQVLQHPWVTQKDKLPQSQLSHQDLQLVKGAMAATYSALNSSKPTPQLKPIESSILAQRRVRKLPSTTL
property: residual activity (%)
Output spec: scalar in %, unitless text.

// worked examples, residual activity included
>  <compound string>
COc1ccc(C(=O)Nc2sc3c(c2C(N)=O)CCCC3)cc1OC

>  <display unit>
%

>  <value reported>
87

$$$$
>  <compound string>
O=C1Nc2ccc(Br)cc2/C1=C\c1cc2c([nH]1)CCCC2

>  <display unit>
%

>  <value reported>
70.4

$$$$
>  <compound string>
COc1ccc(S(=O)(=O)N(CCO)c2ccccc2CN(C)C/C=C/c2ccc(Cl)cc2)cc1

>  <display unit>
%

>  <value reported>
108

$$$$

Return reported residual activity; argument: O=C1C(Cl)=C(N2C(=O)CCC2=O)C(=O)c2ccccc21
96.6

// residual activity lookup, key: CO[C@@H]1[C@H](N(C)C(=O)c2ccccc2)C[C@H]2O[C@]1(C)n1c3ccccc3c3c4c(c5c6ccccc6n2c5c31)C(=O)NC4
0.432

What value of residual activity has been reported for the following compound? CCCCc1c(-c2ccc(OC)cc2)[nH]c2nccnc12
89.8

----------
target: PAK1 (human); assay: radiometric filter-binding kinase assay, Kinase HotSpot; settings: compound 0.5 µM; ATP 10 µM
Below, each entry is listed with its recorded residual activity.
Expressed in %, but write only the number.

The following molecules have reported results that may help.
>  <compound string>
N#C/C(=C\c1ccc(O)c(O)c1)C(=O)NCc1ccccc1

>  <value reported>
97.7

$$$$
>  <compound string>
O=C1C(Cl)=C(N2C(=O)CCC2=O)C(=O)c2ccccc21

>  <value reported>
96.3

$$$$
>  <compound string>
CCCCc1c(-c2ccc(OC)cc2)[nH]c2nccnc12

>  <value reported>
83.7

$$$$
>  <compound string>
COc1ccc(S(=O)(=O)N(CCO)c2ccccc2CN(C)C/C=C/c2ccc(Cl)cc2)cc1

>  <value reported>
96

$$$$
>  <compound string>
NC(=O)c1cccc(-c2cc(Nc3ccc(OC(F)(F)F)cc3)ncn2)c1

>  <value reported>
93.3

$$$$

I have this molecule here, COc1ccc(C(=O)Nc2sc3c(c2C(N)=O)CCCC3)cc1OC , and I need its recorded residual activity.
94

Which value of residual activity has been reported for Cc1cccc(-c2nc(C(C)(C)C)[nH]c2-c2ccc3c(c2)OCO3)n1 in the records?
96.3
